MEASURED_ON: UniProt P00734
PARAMETER: Ki (nM)

Some solved entries appear below for comparison.
# COMPOUND, UNIT_DESCRIPTOR, Ki
measured = [
    ("Cc1cc(C)cc(CCN(CC(=O)NC(CCCCN)B(O)O)C(=O)CCc2ccccc2)c1 (stereo not drawn)", "nM", 0.28),
    ("NCCCCC(NC(=O)CN(CC1(c2ccccc2)CC1)C(=O)CCc1ccccc1)B(O)O (stereo not drawn)", "nM", 0.43),
    ("NCCCCC(NC(=O)CN(CCc1ccccc1)C(=O)CCc1ccccc1)B(O)O (stereo not drawn)", "nM", 0.42),
    ("Cc1cc(C)cc(C(C)(C)CN(CC(=O)NC(CCCN=C(N)N)B(O)O)C(=O)CCc2ccccc2)c1 (stereo not drawn)", "nM", 0.3),
]

[a] N=CNCCCC(NC(=O)CN(CC1(c2ccccc2)CC1)C(=O)CCc1ccccc1)B(O)O (stereo not drawn)
[b] CC(C)(CN(CC(=O)NC(CCCNC=N)B(O)O)C(=O)CCc1ccccc1)c1ccccc1 (stereo not drawn)
Exercise: Smaller Ki value, a vs b ? Choose, then provide that item's label.
Key: a

[1] CC(C)(CN(CC(=O)NC(CCCNC(=N)N)B(O)O)C(=O)CCc1ccccc1)c1ccccc1 (stereo not drawn)
[2] N=CNCCCC(NC(=O)CN(CC1(c2ccccc2)CCCC1)C(=O)CCc1ccccc1)B(O)O (stereo not drawn)
Exercise: Endpoint returns whichever of 1 and 2 has the numerically higher Ki. Choose, then provide that item's label.
Key: 2
